Field: pEC50. Provide a value for each of the binders that follow.
# SUBJECT OF TEST: T1, Vδ1 TCR on human Vδ1-positive γδ T cells (human, UniProt A0A1B0GX56 22-115)
# T1 construct: also called Vδ1 γδ T-cells; cell surface Vδ1 TCR
# TEST METHOD NOTES: flow cytometry binding to γδ T cells, Donor 2 (TS164); column head printed IC50 (nM), the text calls it EC50 of binding; same value in the table of FIG. 11C
One number for each entry, as −log10 of the molar value.

Answered cases to consult:
BINDER	pEC50
ADT1-7-3 (antibody, IgG1, V domains shown, IgG1) VH: EVQLVESGGGLVKPGGSLRLSCAASGFTFSDYYMSWIRQAPGKGLEWVSYISSSGSTIYYADSVKGRFTISRDNAKNSLYLQMNSLRAEDTAVYYCARVSYAEAFDIWGQGTLVTVSS VL: DIQMTQSPSSLSASVGDRVTIACRAGQSIGTYLNWYQQKPGKAPKLLIYVASSLQSGVPSRFSGSGSGTEFTLTISSLQPEDFATYYCQQSYSGLDTFGRGTKVEIK	9.02
ADT1-7-61 (antibody, IgG1, V domains shown, IgG1) VH: EVQLVESGGGLVKPGGSLRLSCAASGFTFSDYYMSWIRQAPGKGLEWVSYISSSGSTIYYADSVKGRFTISRDNAKNSLYLQMNSLRAEDTAVYYCARDDYDDAFDIWGQGTLVTVSS VL: DIQMTQSPSSLSASVGDRVTIACRAGQSIGTYLNWYQQKPGKAPKLLIYVASSLQSGVPSRFSGSGSGTEFTLTISSLQPEDFATYYCQQSASELLTFGRGTKVEIK	6.71
ADT1-7 (parental) (antibody, IgG1, V domains shown, IgG1; also called E07; 1245_P01_E07) VH: QVQLVESGGGLVKPGGSLRLSCAASGFTFSDYYMSWIRQAPGKGLEWVSYISSSGSTIYYADSVKGRFTISRDNAKNSLYLQMNSLRAEDTAVYYCARVDYADAFDIWGQGTLVTVSS VL: DIQMTQSPSSLSASVGDRVTIACRAGQSIGTYLNWYQQKPGKAPKLLIYVASSLQSGVPSRFSGSGSGTEFTLTISSLQPEDFATYYCQQSYSTLLTFGRGTKVEIK	6.65

Quick request: pEC50 for each listed item, please.
1. ADT1-4 (parental) (antibody, IgG1, V domains shown, IgG1; also called G04; 1245_P02_G04) VH: QVQLQQSGPGLVKPSQTLSLTCAISGDSVSSKSAAWNWIRQSPSRGLEWLGRTYYRSKWSTDYAASVKSRITINPDTSKNQLSLQLNSVTPEDTAVYYCARTWSGYVDVWGQGTLVTVSS VL: DIQMTQSPPALSASVGDRVTITCRASQDINDWLAWYQHKPGKAPKLLIYDASSLESGVPSRFSGSGSGTEFTLTISSLQPDDFATYYCQQSYSTPQVTFGQGTRLEIK
2. ADT1-7-20 (antibody, IgG1, V domains shown, IgG1) VH: EVQLVESGGGLVKPGGSLRLSCAASGFTFSDYYMSWIRQAPGKGLEWVSYISSSGSTIYYADSVKGRFTISRDNAKNSLYLQMNSLRAEDTAVYYCARVDYQEAFDIWGQGTLVTVSS VL: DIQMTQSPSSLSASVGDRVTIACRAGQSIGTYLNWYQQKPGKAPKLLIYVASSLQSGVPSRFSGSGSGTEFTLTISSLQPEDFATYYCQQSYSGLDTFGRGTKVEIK

1. 6.24
2. 8.57
